Target or system: NADPH oxidase 5 (Homo sapiens) (UniProt Q96PH1)
Sequence (Q96PH1 whole entry, looked up): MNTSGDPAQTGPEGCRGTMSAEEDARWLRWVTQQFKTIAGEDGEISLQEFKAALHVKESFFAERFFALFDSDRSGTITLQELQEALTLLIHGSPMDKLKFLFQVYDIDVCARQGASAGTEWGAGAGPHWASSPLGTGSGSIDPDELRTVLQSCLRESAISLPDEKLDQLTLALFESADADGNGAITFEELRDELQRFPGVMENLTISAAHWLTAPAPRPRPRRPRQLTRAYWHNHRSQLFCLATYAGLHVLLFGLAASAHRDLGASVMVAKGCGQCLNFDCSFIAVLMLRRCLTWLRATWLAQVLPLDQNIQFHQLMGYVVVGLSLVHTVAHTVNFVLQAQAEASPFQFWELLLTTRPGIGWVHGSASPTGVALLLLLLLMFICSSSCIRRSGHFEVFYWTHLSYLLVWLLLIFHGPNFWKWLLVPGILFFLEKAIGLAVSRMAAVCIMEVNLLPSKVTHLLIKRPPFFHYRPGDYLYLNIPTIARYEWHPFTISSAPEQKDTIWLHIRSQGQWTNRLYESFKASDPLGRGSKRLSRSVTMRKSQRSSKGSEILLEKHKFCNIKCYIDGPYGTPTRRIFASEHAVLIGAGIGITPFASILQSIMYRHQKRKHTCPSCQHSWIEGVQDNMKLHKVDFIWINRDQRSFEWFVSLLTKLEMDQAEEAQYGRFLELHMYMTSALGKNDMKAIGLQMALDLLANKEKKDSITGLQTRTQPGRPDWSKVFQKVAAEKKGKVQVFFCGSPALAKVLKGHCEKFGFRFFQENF
Experiment notes: NOX5-dependent H2O2 signal modulators, primary screen, NOX inhibitor project, cell-based, HEK293-NOX5, Amplex Red fluorescence (AID 1161)
Protocol conditions: HEK293-NOX5, ionomycin, 45 min, higher = more signal
Observable: z-score
Reply briefly: the number, and no unit.

Problem: Supply measured z-score of CCN1C(=O)[C@H]2[C@H]3[C@H](O)[C@H](O)CC(=NO[C@H](C)c4cn([C@@H]5COC[C@H]5O)nn4)[C@@H]3CC[C@H]2C1=O in your reply.
Result: 0.919

Problem: Supply measured z-score of Cc1cc2c(nc1C)CCCCN2CC(O)CN1CCCc2nc(-c3ccc(Br)cc3)ccc21 (configuration not stated) in your reply.
Result: 0.616

Problem: Supply measured z-score of O=C1[C@H]2CCn3c(=O)n(-c4ccccc4)c(=O)n3[C@H]2[C@H](O)[C@@H]2O[C@H]12 in your reply.
Result: 0.423

Problem: Supply measured z-score of COC(=O)[C@H](C)NC(=O)CCC1CC(OC(=O)NCc2ccc3c(c2)OCO3)CC2(CCCC(COC(=O)NCCCN3CCCC3=O)O2)O1 (some centres not stated) in your reply.
Result: -1.74

Problem: Supply measured z-score of O=C1[C@H]2[C@H]3[C@H](O)[C@H](O)CC(=NOC[C@@H](O)COCc4ccco4)[C@@H]3CC[C@H]2C(=O)N1Cc1ccccc1 in your reply.
Result: -0.858

Problem: Supply measured z-score of CC(CCN1CCCc2nc(C)c(C)cc21)=NO[C@H](C)c1cn([C@H](CO)Cc2ccccc2)nn1 in your reply.
Result: 0.863

Problem: Supply measured z-score of CCOC(=O)CCN1C(=O)[C@H]2[C@H]3[C@H](O)[C@H](O)CC(=NNC(=O)OCC)[C@H]3CC[C@H]2C1=O in your reply.
Result: -4.72

Problem: Supply measured z-score of CCCNC(=O)OC[C@H]1O[C@H](CCON=C2C[C@@H](O)[C@@H](O)[C@@H]3[C@@H]4C(=O)N(CC)C(=O)[C@@H]4CC[C@@H]23)C=C[C@@H]1Oc1ccc(OC)cc1 in your reply.
Result: -0.818

Problem: Supply measured z-score of CO[C@@H](C(C)C)[C@@H](C)C1OC(=O)CC1O (some centres not stated) in your reply.
Result: 0.368

Problem: Supply measured z-score of CC(C)CON=C1C[C@@H](O)[C@@H](O)[C@@H]2[C@@H]3C(=O)N(c4ccc(F)cc4F)C(=O)[C@@H]3CC[C@@H]12 in your reply.
Result: -3.22

Problem: Supply measured z-score of C=CCOCC1CN2[C@@H](CC[C@@H](C)[C@@H]2c2ccc(Br)cc2)C(=O)O1 (some centres not stated) in your reply.
Result: -2.74

Problem: Supply measured z-score of CSCC[C@@H]1NC(=O)CC=C[C@@H](C)COC(=O)[C@H](C)COC1=O in your reply.
Result: 0.515

Problem: Supply measured z-score of CCCCOC(OCCCC)C(O)CSc1ccc2ccccc2c1 (configuration not stated) in your reply.
Result: -3.7

Problem: Supply measured z-score of O=C(NN=C1C[C@@H](O)[C@@H](O)[C@@H]2[C@@H]3C(=O)N(c4ccc(F)cc4F)C(=O)[C@@H]3CC[C@H]12)OCc1ccccc1 in your reply.
Result: 0.866

Problem: Supply measured z-score of CO[C@@H]1COC(=O)[C@@H]2CCCN2C(=O)[C@@H](C)COC(=O)CCC[C@H]1C in your reply.
Result: 0.43

Problem: Supply measured z-score of COc1ccc(OC[C@@H](CO)OC)cc1 in your reply.
Result: 0.133

Problem: Supply measured z-score of COC(=O)CC=C1c2ccccc2[C@H](OC)[C@H]1C in your reply.
Result: 0.199
